System: Trichuris muris adult worms
MEASUREMENT_NOTES: mean motility score (Paragon pixel variance) of adult worms (arbitrary units); higher = more motile worms, i.e. less anthelmintic effect; extreme values may be limits of the assay
SETUP_CONDITIONS: 100 µM; 24 h
Param threshold (3000) applies to mean motility score; output y when value >= threshold, n when value < threshold.

1. CC(C)C(=O)Nc1ccc([N+](=O)[O-])c(C(F)(F)F)c1 [flutamide] = n
2. C[C@](N)(Cc1ccc(O)c(O)c1)C(=O)O = y
3. CCN(CC)CCOC(=O)c1ccc(N)cc1.Cl [procaine hydrochloride] = y
4. CN(C)CCOC(=O)C(c1ccccc1)C1(O)CCCC1 (configuration not stated) [cyclopentolate] = n
5. CCc1ccc(CCOc2ccc(CC3SC(=O)NC3=O)cc2)nc1 (configuration not stated) = n
6. OCCO = y
7. C#C[C@]1(O)CC[C@H]2[C@@H]3CCc4cc(O)ccc4[C@H]3CC[C@@]21C = y
8. COc1nc(C)nc(Cl)c1NC1=NCCN1 = y
9. COc1ccc(C(Cl)=C(c2ccc(OC)cc2)c2ccc(OC)cc2)cc1 = n
10. CNCc1ccc(-c2[nH]c3cc(F)cc4c3c2CCNC4=O)cc1 = n
11. O=C1c2c(O)ccc(O)c2C(=O)c2c(NCCNCCO)ccc(NCCNCCO)c21 = n
12. COc1cccc2c1C(=O)c1c(O)c3c(c(O)c1C2=O)C[C@@](O)(C(=O)CO)C[C@@H]3O[C@H]1C[C@H](N)[C@H](O)[C@H](C)O1 = n
13. CC(=O)OC[C@H]1O[C@@H](n2ncc(=O)[nH]c2=O)[C@H](OC(C)=O)[C@@H]1OC(C)=O = y
14. CC(C)NCC(O)COc1cccc2[nH]ccc12 (configuration not stated) = y
15. Cc1c(-c2ccccc2)oc2c(C(=O)OCCN3CCCCC3)cccc2c1=O [flavoxate] = y
16. CC1(C)NC(=O)N(c2ccc([N+](=O)[O-])c(C(F)(F)F)c2)C1=O [nilutamide] = n
17. C(=C\c1ccccc1)/CN1CCN(C(c2ccccc2)c2ccccc2)CC1 = n
18. CCn1cc(C(=O)O)c(=O)c2cc(F)c(N3CCNC(C)C3)c(F)c21 (configuration not stated) = y
19. O=C1c2cccc(O)c2C(=O)c2c(O)cccc21 = n
20. NC(=O)CC[C@H](N)C(=O)O = y
21. C/C(=C\C(=O)OCCCCCCCCC(=O)O)C[C@@H]1OC[C@H](C[C@@H]2O[C@H]2[C@@H](C)[C@H](C)O)[C@@H](O)[C@H]1O = n
22. NCC[C@H](O)C(=O)N[C@@H]1C[C@H](N)[C@@H](O[C@H]2O[C@H](CN)[C@@H](O)[C@H](O)[C@H]2O)[C@H](O)[C@H]1O[C@H]1O[C@H](CO)[C@@H](O)[C@H](N)[C@H]1O.O=S(=O)(O)O [amikacin sulfate] = y
23. c1ccc(CC2=NCCN2)cc1 = n
24. CCCc1nc(C)c2c(=O)nc(-c3cc(S(=O)(=O)N4CCN(CC)CC4)ccc3OCC)[nH]n12 = n
25. COC(=O)C1=C(C)NC(C)=C(C(=O)OC)C1c1ccccc1[N+](=O)[O-] = n
26. CN1C(C(=O)Nc2ccccn2)=C(O)c2ccccc2S1(=O)=O = n
27. Clc1ccc(COC(Cn2ccnc2)c2ccc(Cl)cc2Cl)c(Cl)c1 (configuration not stated) = n
28. CN(C)[C@@H]1C(O)=C(C(N)=O)C(=O)[C@@]2(O)C(O)=C3C(=O)c4c(O)cccc4[C@@](C)(O)[C@H]3[C@H](O)[C@@H]12 = n
29. Cc1ccccc1C(OCCN(C)C)c1ccccc1.Cl (configuration not stated) [orphenadrine hydrochloride] = n
30. CS(=O)(=O)Nc1ccc([N+](=O)[O-])cc1Oc1ccccc1 [nimesulide] = n
31. COc1ccc2cc(CCC(C)=O)ccc2c1 = n
